Recorded values, source the supplement of paper PMC7125110.

B1: glmS ribozyme (parent)
chain: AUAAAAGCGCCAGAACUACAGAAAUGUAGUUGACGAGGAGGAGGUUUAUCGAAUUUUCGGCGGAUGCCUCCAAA

Variants of: B1
Experiment: self-cleavage kobs at 10000 uM GlcN6P; higher = faster cleavage; RNA array
Settings: with glucosamine-6-phosphate
Variants at the floor of the assay were thinned out.
quantity kind: self-cleavage kobs at 10000 uM GlcN6P (s⁻¹)
Number in s⁻¹, nothing else.

Solved cases below.
1. AUAAAAGCGCCAGAACUACAGAAAUGUAGUUGACGAGGAGGAGGUUUAUGGAAUUUUCGGCGAAUGCCUGCAAA [C50G G63A C70G] = 8.99e-05
2. AUAAAAGCGCCAGAACUACAGAAAUGUAGUUGACGAGGAGGAGGUGUAUCGAAUUUUCGGCGGAUGCAUCCAAA [U46G C68A] = 3.1e-05
3. AUAAAAGCGCCAGAACUACAGAAAUGUAGUUGACGAGGAGGAGGUUUAUCGAAAUUUCGGCGGAGGCCUCCAAA [U54A U65G] = 0.00358

Reported self-cleavage kobs at 10000 uM GlcN6P of AUAAAAGCGCCAGAAAUACAGAAAUGUAGUUUACGAGGAGGAGGUUUAUCGAAUUUUCGGCGGAUGCCUCCAAA [C16A G32U] : 0.000363

Reported self-cleavage kobs at 10000 uM GlcN6P of AUAAAAGCGCCAGAACUACAGAAAUGUAGUUGACGAGGAGGAGGUUUAUCGAAUUUUCGGCGGAUGCCUGGAAA [C70G C71G] : 2.86e-05

Reported self-cleavage kobs at 10000 uM GlcN6P of AUAAAAGCGCCAGAACUACAGAAAUGUAGCUGACGAGGAAGAGGUUUAUCGAAUUUUCGGCGGAUGCCUCCAAA [U30C G40A] : 7.27e-05

Reported self-cleavage kobs at 10000 uM GlcN6P of AUAAAAGCGCCAGAACUACAGAAAUGUAGUUGACGAGGAGGAGGUAUAUCGAAUUAUCGGCGGAUGCCUCCAAA [U46A U56A] : 0.000853
